# method summary: soluble on expression in E. coli; label from the status in PepcDB or PDB records
quantity measured: soluble on expression in E. coli

{"input sequence": "MGSSHHHHHHSSGRENLYFQGHMHANIRYSFGGDEHLFAEVAEAMSLEAFFRGMAITRAIEALQLPGVLDVCLANASFQVRFDPDRLAPQALLETVRGLEAEAVAARSIETRIVEVPVLYNDPWTHETLMRFRDRHQDPDSTDLEYAARINGYADVQAFIQAHSGTPWFVSMVGFVAGLPFMYQMVERERQLQVPKYLRPRIDTPKLTLGHGGCFGCIYSVRGAGGYQMFGVTPAPIFDPRQGLPYLEESMVFFRAGDIVQFRPIERTEYEHMAAEVESGTFDLRIRPVSFDLDAFLADPRGCTQHLQEVLHVD", "quantity measured": "soluble on expression in E. coli", "observed measurement": "soluble"}
{"input sequence": "MQLRGEVTPHIGRHAFAVLAILKGMLLETLQKVFGHKSITYVLRIHSLVRRRRSNLFLEVAHLYDQRADQLSQLLIRACFNNCQFHTKILFKILNMRQSNAHPISFPNR", "quantity measured": "soluble on expression in E. coli", "observed measurement": "not soluble"}
{"input sequence": "STKFPTLKRLFGEAQAAWLVKESEQAVLEIDAFCKQHHIDAQLSLKGVYYTATNHVQAGSMQPVVDELSRLGVNSWRRCKEDELHANTGSPRHLEGFHSSVAASVQPALLARGLRRVALEMGIEIFENTPMTKLDFGQPATVSTPDAQIKAKQVVLALNAWMVEHFTQFKNSIVVVSSDMVITKPLGESLRKTGWQAGTSVLDSRIFVHYYRDTPDGRLMLGKGGNQFSFNNQVDVMFNKPTRYQNLLRKSFDKLFPSLKEAEFEYSWTGGSDRSTSGFPFFGKLNEQRNVFYGFGYSGNGVAQTRMGGKILSSMVLGLDNEWTRSGLAKGPLGHFPPEPFRWIGAMTVRNAVRRKEEAEDCGQKPFIWDKWLAKLAGPAGKADKLD", "quantity measured": "soluble on expression in E. coli", "observed measurement": "not soluble"}
{"input sequence": "RNRQQRPGTIKHGSALDVLLSMGFPRARAQKALASTGGRSVQTACDWLFSH", "quantity measured": "soluble on expression in E. coli", "observed measurement": "soluble"}
{"input sequence": "MEQQLKDIISACDLAIQNEDFDTLMNYYSEDAVLVVKPGMIARGKEEIKKAFITIANYFNHHIVPTQGKMILLEAGDTVLVLSQTLLDSDKKDSEYAMERRATYVFKKNAQGEWLCVIDNSYGTDLIGVMAGDPLEHHHHHH", "quantity measured": "soluble on expression in E. coli", "observed measurement": "soluble"}
{"input sequence": "MNTDAIESMVRDVLSRMNSLQGEAPAAAPAAGGASRSARVSDYPLANKHPEWVKTATNKTLDDFTLENVLSNKVTAQDMRITPETLRLQASIAKDAGRDRLAMNFERAAELTAVPDDRILEIYNALRPYRSTKEELLAIADDLESRYQAKICAAFVREAATLYVERKKLKGDD", "quantity measured": "soluble on expression in E. coli", "observed measurement": "soluble"}
{"input sequence": "MAHHHHHHMTSQPHVTMSKNTGSVTEQHKRMSHTTGDNNEEEKHILAGRYKTKLCKNYVARGECPYDVRCMFAHGEDELRTSDDNIRDGLVTEEAIKDFQRQQNQAKRRAAFAAAREHNNHDHSHSHNHSHSHNHTVRPVPHGNVYEMEENVESNEVYRNRNRHHNLRLHPPQEPVSIPQPQQQQQQEQQFQLQSVVAQYYTHNPYVFDLIPAAARLFPVYQEVVEEGCWYEEEPVPAQEDYYFPSSDMMMPLVPSLVTQQYLPYPHQQCSKQLETVASASTYSCEEAMYGHSESSASSAYRSVARCTAAELPSNSDIPAMVMEP", "quantity measured": "soluble on expression in E. coli", "observed measurement": "not soluble"}

###

# method summary: soluble on expression in E. coli; label from the status in PepcDB or PDB records

{"input sequence": "MGSDKIHHHHHHMSDSHQGSCLCGAVRFRTKGALRGVVYCHCSQCRKQSGHFYAATNVADADIVIEGTESITWYEASAFAGRGFCKTCGSVLFWKPRTQDYISVMAGAFDKPTGLKGDCHIFVGDKGDYYSIDDGLPQFEKSTPSIAVAE", "soluble on expression in E. coli": "not soluble"}
{"input sequence": "MNVRDLSFKLNSIFDINKYEHIDKNLNGLQVGNINAKVNKVAFAVDASFSTLKEAKGNDFLITHHGIFWSKKERIVSNMYDKTKFLIENNLALYSVHLPMDAHSVYSHSKVFSDFLGLKNSFAFANYGGVNLGIIADSVFSFSEILEKIKKENKHILFSKKFKESVNKVAIVSGSGYSFFEEALCHDVDLFITGDTSHQIYSLAEEFGVNLIFAGHYFTETFGLIKLMEDFKIQEDLEVKFICKNTNLLEHHHHHH", "soluble on expression in E. coli": "not soluble"}
{"input sequence": "MNYNSKMEPLAIPEYGRNIQNMVNYCMTIGDRDERNRCAQTIITIMGNMFPERRENSETKHILWDHLAIMSGFKLDIDYPMEIISPELLERKPKAVSYSANDIVYRHYGHLIQEMILKACAMEQGEERYALELLIANQMKRSYLTWNKDTVDDYKIFKDLYELSEGRIELTEESCHLTIPNASDRKDNNNTKRNKVFRRK", "soluble on expression in E. coli": "not soluble"}
{"input sequence": "MGSDKIHHHHHHMNLAAFEAFVKVMETGSISVAADQLFITQPAVTKRIHSLEEYFGVKLFESAGRGVQATHAAHSLLPKVKSWLNELRDIHHTLSHEQTQIQGRLKIGTSHHIGLHHLPAPLKHFVQQFPQVTLDVHFVDSEQAHEQVLAGDLELAFLTLPPSGDERLNYITIWNDPLVFVAAPFHPLAQKKNLTLQDLIEYPSLLPAAQTYTAQITLAEFEKQGLKPKITMSNNPLESIRMLVSIGLGWSVLPKTLLNQDMQQLDLNVEMNRQLGMVWHPARTQSRAMQELIKMMQE", "soluble on expression in E. coli": "not soluble"}
{"input sequence": "MANVESLYKELTAEWSKRPPNTVKCGQLLDQLKVALVKMAFLPTDGNDAQSSKKQLILARSVLEVAVEHSVLSKDLLAFERYMAQLKCYYYDYAKIIGESESKYKLLGLNLLYLLSGNRVSDFHTELELLSVDVIQHNQFIRPILALEQYIMEGRYNKIFQAKSTVPVEVYSYFMDLLLETVRDEIGACIEKSYDKISAKDAAKRLNLRVPDEIKAFGAKRQWKLEASGDYSFTDRSVKPKELLPSEELAEQVLSYARDLEMIV", "soluble on expression in E. coli": "not soluble"}
{"input sequence": "MRGSHHHHHHGIQMVSIAINGFGRIGRLVLRIALERKNIDVVAINDPFISVDYAAYMFKYDSTHGKYKGEVSHDGSNLIINGKKVAVFQEKDPATLPWGKLGVDIAVDSTGVFKELDSAQKHIDAGAKKVVITAPSKTAPMFVVGVNEDKYNGEKIVSNASCTTNCLAPIAKIINDEFGIEEGLMTTVHSITATQKTVDGPSHKDWRGGRTASGNIIPSSTGAAKAVGKVLPELQGKLTGMAFRVPTTDVSVVDLTVKLVKAATYDEIKAAVKKVSEGKLKDVVGYTEDAVVSSDFLGDTHSTIFDAAAGIQLSPKFVKLVAWYDNEYGYSTRVVDLVEHVA", "soluble on expression in E. coli": "soluble"}
{"input sequence": "MYCQRLRQLRKAHKLTMEQLAEKIGIAKSSYGGYEAESKKPPLDKLVILARLYDVSVDYILGLTDDPDPKVERKNLKEFLEKPDIHWDGYKLTPEILDPIRKILKLVTANNN", "soluble on expression in E. coli": "not soluble"}
{"input sequence": "SEDNQRSRFRKICVFCGSHSGHREVFSDAAIELGNELVKRKIDLVYGGGSVGLMGLISRRVYEGGLHVLGIIPKALMPIEISGETVGDVRVVADMHERKAAMAQEAEAFIALPGGYGTMEELLEMITWSQLGIHKKTVGLLNVDGYYNNLLALFDTGVEEGFIKPGARNIVVSAPTAKELMEKMEEYTPSHMHVASHESWKVEELGDYPGQENKPQ", "soluble on expression in E. coli": "soluble"}
{"input sequence": "MGSDKIHHHHHHMTEITTLSQFLTTAKTQFQVYDLGRRVQHIDMLAFHQIESLATPYPYPIQGHAQFAIVFWDASQQHFIWFLKLALDEQGLLSPAPRSQFIEMVLSALGQDPTQPLSNEQQEHLANNPFSFTPSQEKLAVFNALVRKQLGQHASVQYEFAMQYLSGQIAPSQWQHIGIQGIADVCVRANELDHEAKLLTSFDSAAIEVQIALCQCLEHVQISPLLANKILNKLTAAEPEHKAYFLRALASNSELSQKALAHLHQGSNLDANTLISIAGRNWTVLKQELSRSIYLEALALQPQTFFNQIFADIVAIPSLRNLLLGELRNPNRSIQLSQAIGGLFKAASK", "soluble on expression in E. coli": "not soluble"}
{"input sequence": "MGSSHHHHHHSSGLVPRGSKITVNPESKAVLAGQFVKLCCRATGHPFVQYQWFKMNKEIPNGNTSELIFNAVHVKDAGFYVCRVNNNFTFEFSQWSQLDVCDIPESFQRSVDGVSESKLQICVEPTSQKLMPGSTLVLQCVAVGSPIPHYQWFKNELPLTHETKKLYMVPYVDLEHQGTYWCHVYNDRDSQDSKKVEIIIDELNNLGHPDNKEQTTDQ", "soluble on expression in E. coli": "soluble"}
{"input sequence": "MSGRGKVKSEPMKVVFINTQYVETDARSFKTVVQELTGKNAIVAAGPFDSPSAFDGRCYDGGSKIGEDTRQLHGGGGGGGRMGTTTEFDRLFKEMPHMEELYKLWSEY", "soluble on expression in E. coli": "soluble"}
{"input sequence": "SHMRVLVCGGAGYIGSHFVRALLRDTNHSVVIVDSLVGTHGKSDHVETRENVARKLQQSDGPKPPWADRYAALEVGDVRNEDFLNGVFTRHGPIDAVVHMCAFLAVGESVRDPLKYYDNNVVGILRLLQAMLLHKCDKIIFSSSAAIFGNPTMGSVSTNAEPIDINAKKSPESPYGESKLIAERMIRDCAEAYGIKGICLRYFNACGAHEDGDIGEHYQGSTHLIPIILGRVMSDIAPDQRLTIHEDASTDKRMPIFGTDYPTPDGTCVRDYVHVCDLASAHILALDYVEKLGPNDKSKYFSVFNLGTSRGYSVREVIEVARKTTGHPIPVRECGRREGDPAYLVAASDKAREVLGWKPKYDTLEAIMETSWKFQRTHPNGYASQENGTPGGRTTKL", "soluble on expression in E. coli": "soluble"}
